Task for the reader: assign each of the following molecules its reported combination Emax.
test system: HuP-T3 (Pancreatic Carcinoma); test: combination Emax (second highest fraction inhibited in the dose matrix, 72 h); higher = more inhibition; extreme values may be limits of the assay
Would you mind answering with just the numeric figure?

Given the molecule NC1(C(=O)N[C@@H](CCO)c2ccc(Cl)cc2)CCN(c2ncnc3[nH]ccc23)CC1 [Capivasertib] + CC(=O)c1c(C)c2cnc(Nc3ccc(N4CCNCC4)cn3)nc2n(C2CCCC2)c1=O [Palbociclib] (first compound max 10 µM, 7x7, partner max 10 µM) , what is its reported combination Emax? 0.324

Try this molecule too: C[C@@H](c1ccc2nccn2c1)n1nnc2ncc(-c3cnn(C)c3)nc21 [Savolitinib] + CN(CC[C@H](CSC1=CC=CC=C1)NC2=C(C=C(C=C2)S(=O)(=O)NC(=O)C3=CC=C(C=C3)N4CCC(CC4)[C@H](C5=CC=CC=C5C6=CC=C(C=C6)Cl)O)S(=O)(=O)C(F)(F)F)CCO [AZD4320] (first compound max 1 µM, 7x7, partner max 1 µM) 0.203

Try this molecule too: CC1(C)CCC(CN2CCN(c3ccc(C(=O)NS(=O)(=O)c4ccc(NCC5CCOCC5)c([N+](=O)[O-])c4)c(Oc4cnc5[nH]ccc5c4)c3)CC2)=C(c2ccc(Cl)cc2)C1 [Venetoclax] + Cc1cc2ncnn2cc1Nc1ncc2c(n1)n(C1CCOCC1)c(=O)n2C [AZD7648] (first compound max 1 µM, 7x7, partner max 10 µM) 0.166

Try this molecule too: CC1(C)CCC(CN2CCN(c3ccc(C(=O)NS(=O)(=O)c4ccc(NCC5CCOCC5)c([N+](=O)[O-])c4)c(Oc4cnc5[nH]ccc5c4)c3)CC2)=C(c2ccc(Cl)cc2)C1 [Venetoclax] + Cn1cnc2c(F)c(Nc3ccc(Br)cc3Cl)c(C(=O)NOCCO)cc21 [Selumetinib] (first compound max 1 µM, 7x7, partner max 3 µM) 0.316

Try this molecule too: CC1(C)CCC(CN2CCN(c3ccc(C(=O)NS(=O)(=O)c4ccc(NCC5CCOCC5)c([N+](=O)[O-])c4)c(Oc4cnc5[nH]ccc5c4)c3)CC2)=C(c2ccc(Cl)cc2)C1 [Venetoclax] + COc1cc(Nc2ncc3c(n2)-c2ccc(Cl)cc2C(c2c(F)cccc2OC)=NC3)ccc1C(=O)O [Alisertib] (first compound max 1 µM, 7x7, partner max 10 µM) 0.337

Try this molecule too: Cc1c2c(nn1C)CSCc1cc(n(C)n1)CSc1cc(c3ccccc3c1)OCCCc1c(C(=O)O)n(C)c3c-2c(Cl)ccc13 [AZD5991] + C[C@@H](Nc1cc(F)cc(F)c1)c1cc(C(=O)N(C)C)cc2c(=O)cc(N3CCOCC3)oc12 [AZD8186] (first compound max 1 µM, 7x7, partner max 3 µM) 0.288

Try this molecule too: C[C@@H]1COCCN1c1cc(C2([S@](C)(=N)=O)CC2)nc(-c2ccnc3[nH]ccc23)n1 [AZD6738] + O=C(c1cc(Cc2n[nH]c(=O)c3ccccc23)ccc1F)N1CCN(C(=O)C2CC2)CC1 [Olaparib] (first compound max 10 µM, 7x7, partner max 10 µM) 0.705

Try this molecule too: NC1(C(=O)N[C@@H](CCO)c2ccc(Cl)cc2)CCN(c2ncnc3[nH]ccc23)CC1 [Capivasertib] + CC(C)n1c(=O)n(C)c2cnc3cc(F)c(-c4ccc(OCCCN5CCCCC5)nc4)cc3c21 [AZD1390] (first compound max 10 µM, 7x7, partner max 0.3 µM) 0.163

Try this molecule too: COc1cc2c(cc1OCCCCCOc1cc3c(cc1OC)C(=O)N1C=C(C)C[C@H]1C=N3)N=C[C@@H]1CC(C)=CN1C2=O [SG3199] + O=C(c1cc(Cc2n[nH]c(=O)c3ccccc23)ccc1F)N1CCN(C(=O)C2CC2)CC1 [Olaparib] (first compound max 0.001 µM, 7x7, partner max 10 µM) 0.112

Try this molecule too: CN(C)CCCOc1ccc(-c2ccc3ncc4c(c3c2)n(C2CCOCC2)c(=O)n4C)cn1 [AZD0156] + CCN(CCO)CCCOc1ccc2c(Nc3cc(CC(=O)Nc4cccc(F)c4)[nH]n3)ncnc2c1 [AZD2811] (first compound max 1 µM, 7x7, partner max 1 µM) 0.0599

Try this molecule too: CCN(CCO)CCCOc1ccc2c(Nc3cc(CC(=O)Nc4cccc(F)c4)[nH]n3)ncnc2c1 [AZD2811] + O=C(c1cc(Cc2n[nH]c(=O)c3ccccc23)ccc1F)N1CCN(C(=O)C2CC2)CC1 [Olaparib] (first compound max 1 µM, 7x7, partner max 10 µM) 0.163

Try this molecule too: Cc1c2c(nn1C)CSCc1cc(n(C)n1)CSc1cc(c3ccccc3c1)OCCCc1c(C(=O)O)n(C)c3c-2c(Cl)ccc13 [AZD5991] + C1CN(CCC1(C(=O)N[C@@H](CCO)C2=CC=C(C=C2)Cl)N)C3=NC=NC4=C3C=CN4 [Capivasertib] (first compound max 1 µM, 7x7, partner max 3 µM) 0.228

Try this molecule too: CN(CCO)CC[C@H](CSc1ccccc1)Nc1ccc(S(=O)(=O)NC(=O)c2ccc(N3CCC([C@@H](O)c4ccccc4-c4ccc(Cl)cc4)CC3)cc2)cc1S(=O)(=O)C(F)(F)F [AZD4320] + Cn1cnc2c(F)c(Nc3ccc(Br)cc3Cl)c(C(=O)NOCCO)cc21 [Selumetinib] (first compound max 1 µM, 7x7, partner max 3 µM) 0.471

Value source: the supplement of paper PMC11061612
